Test system: SNB-19
experiment: NCI tumour cell line growth inhibition, 48 h
The source made the active and inactive calls. No stated cut-off is given here; in the data, active = GI50 up to about 1.1 µM and inactive = higher.
Hi! Could you answer with just one of these? 1 for active, 0 for inactive

Asked: Please state the recorded outcome for this molecule: Nc1nc(I)nc2c1ncn2C1OC(COS(N)(=O)=O)C(O)C1O (stereo unspecified)
Given back: 1

Asked: What about `COc1ccc(-c2c(C#N)c(S)n(NS(=O)(=O)c3ccc(C)cc3)c(=O)c2C#N)cc1` ?
Given back: 0

Asked: Then `CC(=O)n1c2ccc(Br)cc2c2nc3ccccc3nc21` ?
Given back: 0

Asked: Further, for `Cc1cc(S(=O)(=O)Nc2nc3cscc3c(=O)n2N)c(S)cc1Cl` ?
Given back: 0

Asked: Queued: `O=c1oc2ccccc2cc1-c1csc(Nc2ccc(F)cc2)n1`
Given back: 0

Asked: Next molecule up: `COc1cccc2c1/c(=C/c1ccc(N(C)C)cc1)c1cc(-c3ccccc3)[n+](C)n12`
Given back: 1

----------
System: MDA-N
experiment: NCI tumour cell line growth inhibition, 48 h
The source made the active and inactive calls. No stated cut-off is given here; in the data, active = GI50 up to about 1.1 µM and inactive = higher.
value_kind: GI50

Asked: GI50 lookup needed for `COc1cccc(/C=N/[N+](C)(C)C)c1O` , thanks.
Given back: > 10 µM (inactive)

Asked: Okay, and `O=c1oc2ccccc2cc1-c1csc(Nc2ccc(F)cc2)n1` ?
Given back: 4.66 µM (inactive)

Asked: # repeat for NC(=O)C[S+]([O-])CC(N)C(=O)O (stereo unspecified)
Given back: > 100 µM (inactive)

Asked: // next record OC1(c2cccs2)c2cccc(Cl)c2C(O)(c2cccs2)c2c(Cl)cccc21 (stereo unspecified)
Given back: > 100 µM (inactive)

Asked: # iterate: COC1CC(C)([N+](=O)[O-])C(O)C(C)O1 (stereo unspecified)
Given back: > 100 µM (inactive)

Asked: // same read-out, input: `CCN(CC)C(=S)Oc1cc2oc(=O)cc(C)c2cc1Cl`
Given back: > 100 µM (inactive)

Asked: Subsequent entry: Cc1cc2nnn(C3CCCCO3)c2cc1C (stereo unspecified)
Given back: > 100 µM (inactive)

Asked: Would you mind doing CCCCCC(C)(C)CCC(=O)OC1OC(COC2OC(COC3OC(CO)C(O)C(O)C3O)C(O)C(O)C2O)C(O)C(O)C1O (stereo unspecified) as well?
Given back: > 100 µM (inactive)

Asked: Now the same for C=C(C)C(=O)O[C@H]1C[C@@]23O[C@@H]2CCC(=C[C@H]2OC(=O)C(=C)[C@H]12)COC3O (stereo partly specified)
Given back: 49.2 µM (inactive)

Asked: Then this molecule: COc1ccccc1C1C2=C(COC2=O)OC(C)(C)Oc2cc3c(cc21)OCO3 (stereo unspecified)
Given back: 0.65 µM (active)

Asked: Also need CCNC(C)(C)C(SS)c1ccc(Br)cc1 (stereo unspecified) , thanks.
Given back: 45.6 µM (inactive)

Asked: Next molecule: O=C(c1cccc(F)c1F)N1CCc2c([nH]c3ccccc23)C1c1ccc2c(c1)OCO2 (stereo unspecified)
Given back: 2.42 µM (inactive)

Asked: `N/C(CSCCSC/C(N)=N/O)=N\O` , same question.
Given back: > 100 µM (inactive)

Asked: Then this molecule: `c1cc(CN2CCNCCNCCNCC2)cc(CN2CCNCCNCCNCC2)c1`
Given back: > 100 µM (inactive)

Asked: Also need `NN/C(=N\S(=O)(=O)c1cccc2nsnc12)Nc1ccc(Cl)cc1` , thanks.
Given back: > 100 µM (inactive)

Asked: Ok, now `CCC(=O)O[C@H]1CC[C@H]2[C@@H]3CCC4=C/C(=N/NC(=O)c5cccc6c(=O)c7ccccc7[nH]c56)CC[C@]4(C)[C@H]3CC[C@]12C`
Given back: > 25 µM (inactive)

Asked: Quick one: `Cc1cc2c(cc1C)[n+]([O-])c(N1CCN(c3ccc([N+](=O)[O-])cc3)CC1)c(C#N)[n+]2[O-]`
Given back: > 100 µM (inactive)

Asked: Now consider `Cc1cc(C)c2c(=N)c3ccccc3n(CCCCCCO)c2n1` .
Given back: 2.52 µM (inactive)

Asked: Another molecule to check: COC(=O)C1=C(C=O)C2C=CC1C2 (stereo unspecified)
Given back: > 100 µM (inactive)

Asked: Query CC1CC(C)C2=NOS3=C2C1=NO3 (stereo unspecified) next
Given back: > 100 µM (inactive)

Asked: Try this molecule too: C=CC1(O)CCCC=C1COCc1ccccc1 (stereo unspecified)
Given back: 73.8 µM (inactive)
